Origin of measurements: the supplement of paper PMC10567573

The reader will find reported protein stability index values listed item by item below.
test: protein stability index of a GFP-peptide fusion (GPS, HEK-293T) (PSI 1-6); higher = more stable; conditions: treatment: DMSO; c terminus: a fixed tail appended;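 note: 24-mer peptide tiles fused after GFP, lentivirally expressed, FACS-sorted into six equal bins by GFP/DsRed ratio, decoded by Illumina sequencing, PSI is the read-weighted mean bin number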
Answer with the value's number alone.

A selection of reference data follows.
{"columns": ["Primary sequence", "Measurement name", "Reported"],
 "data": [
  ["CYVGATVLRGRLYAIAGYDGNSLL [KLHL12]", "protein stability index", 3.2],
  ["LLKCVRESDPSDPNKDMVVQLIDD [SRPK2]", "protein stability index", 4.6],
  ["IERMKQIYQQLSRYRGLGLLASVP [CRY1]", "protein stability index", 2.3]
]}

Would you kindly share the measured protein stability index for FYQSPYDSEQVPQALRRLRPRTRK [NCF4] ? 4.63

Would you kindly share the measured protein stability index for QRFHEICSNLVKTRRRAVGWWKRL [ARL6IP1] ? 2.22

Would you kindly share the measured protein stability index for TEPLTHWYQVRCLFQSPLFAKAGD [CARM1] ? 2.11

Would you kindly share the measured protein stability index for DLFVENMPGFPDNIRPSSSGGYWV [APMAP] ? 2.32

Would you kindly share the measured protein stability index for TYAVRKLDNTKFRSHEGETAYIRV [SRSF1] ? 2.46

Would you kindly share the measured protein stability index for VSGFCRSPPVMVAGGRVFVLPCIQ [FLOT1] ? 2.43

Would you kindly share the measured protein stability index for LVKKLQDSVLERWVNDPQRMDKRT [GOLPH3L] ? 2.69
